- Method Summary: Mouse pharmacokinetics, plasma and brain, oral dose
- Type: in vivo, CD1 mouse
- Condition: CD1, po, brain, p.o. 10 mg/kg
Result Type: Tmax (h)
Please give a number only; it is taken to be in h.

Tmax lookup needed for "O=C(O)CSc1ncnc2c(C3CC3)c(Cl)sc12" , thanks.
2

----------
- Method Summary: Metabolic stability in mouse liver microsomes (MLM)
- Assay type: in vitro ADME
- Condition: csv file
Result Type: MLM Cli (µL/min/mg)
Please give a number only; it is taken to be in µL/min/mg.

Solved entries (count: 5):
> print(dat)
                                   molecule  result.type  unit.text  reported
1  CN1CN(C(=O)CSc2ncnc3c(C4CC4)c(Cl)sc23)CC1=O [Compound 17h]      MLM Cli  µL/min/mg        45
2  O=C(CSc1ncnc2c(C3CC3)c(Cl)sc12)N1CCn2c(nnc2C(F)(F)F)C1 [Compound 17q]      MLM Cli  µL/min/mg       190
3  O=C(CSc1ncnc2c(C3CC3)c(Cl)sc12)N1CCn2cncc2C1 [Compound 17n]      MLM Cli  µL/min/mg        49
4  O=C(CSc1ncnc2c(C3CC3)c(Cl)sc12)N1CC2(COC2)C1 [Compound 17f]      MLM Cli  µL/min/mg       100
5  O=C(CSc1ncnc2c(C3CC3)c(Cl)sc12)N1CCn2nncc2C1 [Compound 17r]      MLM Cli  µL/min/mg       110

// next entry
MLM Cli lookup needed for O=C1CN(C(=O)CSc2ncnc3c(C4CC4)c(Cl)sc23)CN1 [Compound 17g] , thanks.
19

----------
MDCK-mdr1 AB values for the compounds below.
- Tested on: MDCK-MDR1 monolayer
- Method Summary: MDCK-MDR1 monolayer permeability / P-gp efflux
- Format: in vitro ADME
- Condition: csv file; AB direction
Please give a number only; it is taken to be in x10–6 cm/s.

> print(dat)
                                   compound  reported
1  CN1CN(C(=O)CSc2ncnc3c(C4CC4)c(Cl)sc23)CC1=O [Compound 17h]         6
2  O=C(CSc1ncnc2c(C3CC3)c(Cl)sc12)N1CCn2nncc2C1 [Compound 17r]        26
3  O=C(CSc1ncnc2c(C3CC3)c(Cl)sc12)N1CCn2ccnc2C1 [Compound 17m]        21
4  O=C(CSc1ncnc2c(C3CC3)c(Cl)sc12)N1CCn2cnnc2C1 [Compound 17p]      0.95

// next entry
MDCK-mdr1 AB lookup needed for O=C1CN(C(=O)CSc2ncnc3c(C4CC4)c(Cl)sc23)CCN1 [Compound 17i] , thanks.
7.9

----------
- Experimental System: Notum(81-451 Cys330Ser) (Homo sapiens, UniProt Q6P988, C330S)
- Sequence (Q6P988 81-451 C330S): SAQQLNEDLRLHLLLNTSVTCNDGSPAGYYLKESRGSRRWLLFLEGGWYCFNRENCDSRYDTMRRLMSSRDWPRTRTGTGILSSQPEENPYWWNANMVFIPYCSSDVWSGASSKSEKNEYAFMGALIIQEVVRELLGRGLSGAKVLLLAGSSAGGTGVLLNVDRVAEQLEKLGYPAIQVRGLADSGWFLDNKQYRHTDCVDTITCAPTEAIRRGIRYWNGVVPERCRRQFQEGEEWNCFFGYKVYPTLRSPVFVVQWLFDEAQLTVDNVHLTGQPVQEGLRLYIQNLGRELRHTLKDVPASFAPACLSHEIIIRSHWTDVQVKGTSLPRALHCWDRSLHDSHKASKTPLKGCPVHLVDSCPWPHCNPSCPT
- Method Summary: Notum OPTS fluorescence inhibition assay
Result Type: pIC50
Bear in mind: pIC50 is minus log10 of a mol/L concentration; give just that figure.

> print(dat)
                                   molecule                       experimental.system  result.type  reported
1  O=C(CSc1ncnc2c(C3CC3)c(Cl)sc12)N1CCn2nncc2C1 [Compound 17r]  Notum(81-451 Cys330Ser) (Homo sapiens, UniProt Q6P988, C330S)        pIC50      8.62
2  O=C(CSc1ncnc2c(C3CC3)c(Cl)sc12)N1CCCCC1 [Compound 17b]  Notum(81-451 Cys330Ser) (Homo sapiens, UniProt Q6P988, C330S)        pIC50      7.04
3  O=C(CSc1ncnc2c(C3CC3)c(Cl)sc12)N1CCn2cnnc2C1 [Compound 17p]  Notum(81-451 Cys330Ser) (Homo sapiens, UniProt Q6P988, C330S)        pIC50      8.92
4  O=C(CSc1ncnc2c(C3CC3)c(Cl)sc12)N1CCn2cncc2C1 [Compound 17n]  Notum(81-451 Cys330Ser) (Homo sapiens, UniProt Q6P988, C330S)        pIC50      8.60
5  O=C1CN(C(=O)CSc2ncnc3c(C4CC4)c(Cl)sc23)CN1 [Compound 17g]  Notum(81-451 Cys330Ser) (Homo sapiens, UniProt Q6P988, C330S)        pIC50      8.82

// next entry
Which measured pIC50 belongs to O=C(CSc1ncnc2c(C3CC3)c(Cl)sc12)N1CCOCC1 [Compound 17c] , tested on Notum(81-451 Cys330Ser) (Homo sapiens, UniProt Q6P988, C330S)?
7.74
